Origin of measurements: ChEMBL document CHEMBL1146029

Provide the reported inhibition zone (IZ) of each item.
Test system: Enterococcus faecalis
protocol.text: Antibacterial activity against VRE Enterococcus faecalis 1528 by agar diffusion assay
Type: functional

Please report inhibition zone (IZ) for every entry that follows.
1. O=C(O)c1cn(C2CC2)c2cc(N3CCNCC3)c(F)cc2c1=O
2. N[C@@H](C(=O)N[C@@H]1C(=O)N2C(C(=O)O)=C(Cl)CC[C@H]12)c1ccccc1 [LORACARBEF ANHYDROUS]
3. CO/N=C(\C(=O)N[C@@H]1C(=O)N2C(C(=O)O)=C(COC(C)=O)CS[C@H]12)c1csc(N)n1
4. O=C(Cc1ccccc1)NCC(=O)N1O[C@H](C(=O)O)C[C@@H]1C(=O)O

Out:
["24 mm", "0 mm", "22 mm", "0 mm"]

====

Tested on: Staphylococcus aureus
protocol.text: Antibacterial activity against wild type Staphylococcus aureus SG 511 by agar diffusion assay
Type: functional
Provide the reported inhibition zone (IZ) of each item.

As a guide, the following entries are already answered.
{"columns": ["compound", "inhibition zone (IZ)"],
 "data": [
  ["CO/N=C(\\C(=O)N[C@@H]1C(=O)N2C(C(=O)O)=C(COC(C)=O)CS[C@H]12)c1csc(N)n1 [CEFOTAXIME]", "26 mm"],
  ["O=C(O)c1cn(C2CC2)c2cc(N3CCNCC3)c(F)cc2c1=O [CIPROFLOXACIN]", "29 mm"],
  ["O=C(Cc1ccccc1)NCC(=O)N1O[C@H](C(=O)O)C[C@@H]1C(=O)O", "0 mm"]
]}

Turning now to a further compound:
In: What does the record list as inhibition zone (IZ) for N[C@@H](C(=O)N[C@@H]1C(=O)N2C(C(=O)O)=C(Cl)CC[C@H]12)c1ccccc1 [LORACARBEF ANHYDROUS] ?
Out: 28 mm

====

Tested on: Klebsiella pneumoniae
protocol.text: Antibacterial activity against Klebsiella pneumoniae ATCC 8308 by agar diffusion assay
Assay type: functional
Provide the reported inhibition zone (IZ) of each item.

{"columns": ["cpd.smiles", "inhibition zone (IZ)"],
 "data": [
  ["CC1(C)S[C@@H]2[C@H](NC(=O)Cc3ccccc3)C(=O)N2[C@H]1C(=O)O", "12 mm"],
  ["C[C@H](NC(=O)Cc1ccccc1)C(=O)N1O[C@H](C(=O)O)C[C@@H]1C(=O)O", "0 mm"],
  ["O=C(Cc1ccccc1)NCC(=O)N1O[C@H](C(=O)O)C[C@@H]1C(=O)O", "0 mm"]
]}

In: What does the record list as inhibition zone (IZ) for `C[C@@H](NC(=O)Cc1ccccc1)C(=O)N1O[C@H](C(=O)O)C[C@@H]1C(=O)O` ?
Out: 0 mm

====

System: Escherichia coli
protocol.text: Antibacterial activity against Escherichia coli ATCC 33475 by agar diffusion assay
Format: functional
readout.label: inhibition zone (IZ) (mm)
Numbers only, in mm.

{"columns": ["cpd.smiles", "inhibition zone (IZ) [mm]"],
 "data": [
  ["C[C@H](NC(=O)Cc1ccccc1)C(=O)N1O[C@H](C(=O)O)C[C@@H]1C(=O)O", 0],
  ["CC1(C)S[C@@H]2[C@H](NC(=O)Cc3ccccc3)C(=O)N2[C@H]1C(=O)O", 23],
  ["C[C@@H](NC(=O)Cc1ccccc1)C(=O)N1O[C@H](C(=O)O)C[C@@H]1C(=O)O", 0]
]}

Turning now to a further molecule:
In: Return inhibition zone (IZ) measured with Escherichia coli given this molecule: `O=C(Cc1ccccc1)NCC(=O)N1O[C@H](C(=O)O)C[C@@H]1C(=O)O`
Out: 0
